Numbers sourced from paper PMC7178755.

assay.info: Plasma toxicokinetics after single intravenous administration in mice
Format: in vivo, B6C3F1/N mice
assay.setup: male, B6C3F1/N, mouse, iv, 34 mg/kg
experimental.endpoint: Cmax (ng/mL)
Express your answer in ng/mL, writing the number without its unit.

input: If you can, please state the reported Cmax value of Oc1ccc(C(c2ccc(O)cc2)(C(F)(F)F)C(F)(F)F)cc1 [BPAF, Bisphenol AF] .
output: 7490

----------
assay.info: Plasma toxicokinetics after single intravenous administration in mice
Type: in vivo, B6C3F1/N mice
assay.setup: female, B6C3F1/N, mouse, iv, 34 mg/kg, Beta half-life, free BPAF, female mice, 34 mg/kg IV, mean (SE)
experimental.endpoint: half-life (h)
Express your answer in h, writing the number without its unit.

input: If you can, please state the reported half-life value of Oc1ccc(C(c2ccc(O)cc2)(C(F)(F)F)C(F)(F)F)cc1 .
output: 3.03
